# measurement-notes: NCI Yeast Anticancer Drug Screen. Data for the rad50 strain (AID 155)
# measurement-context: S. cerevisiae rad50 strain growth inhibition; at 50.0 µM (retest, dose inferred, filed as 5.0)
About 79,000 compounds went through this panel and 15% of them were active in at least one assay; those are over-represented in the sample as a whole. The source made the active and inactive calls. Cut-off read from the data, not from the text of the source: active = growth inhibition above about 70%; inactive = the rest.
I would appreciate it if you answered using one of these outcomes: T for active, F for inactive

Would you please look over these solved cases?
INSERT INTO measurements (compound, discrete_label) VALUES
  ('CCCC(/C=N/N=C(N)N)=N\N=C(N)N', 'F'),
  ('O=C1CSC(c2ccc(Cl)cc2)N1c1ccc(-c2ccc(-n3c(-c4ccccc4)nc4ccccc4c3=O)cc2)cc1 (stereo unspecified)', 'T'),
  ('CCCCCCCCCCNC(=O)C[n+]1cccc(C(=O)Nc2ccccc2)c1', 'T'),
  ('O=C(O)/C=C/C(=O)Nc1cccc2c1C(=O)c1ccccc1-2', 'T'),
  ('C=C1CC2(CCS(=O)(=O)c3ccccc32)OC1=O (stereo unspecified)', 'F');

Lab note: next compound to report on.
Query: recorded result category for OC(c1ccc(Cl)cc1)c1ccc(Cl)cc1 in this test
T

This collection of values is drawn from PubChem BioAssay (NCI).
